This collection of values is drawn from paper PMC12445222.

Substrate: ClCCCl
Assay: ITC initial rates, steady-state fit with substrate inhibition
Format: biochemical, Xanthobacter autotrophicus
Conditions: 100 mM glycine buffer, pH 8.6, 15 °C
OUTCOME MEASURE: Km (µM)
Quick note: give the figure in µM, leave out the unit.

Recorded Km (protein haloalkane dehalogenase (DhlA) (Xanthobacter autotrophicus) (protein) MINAIRTPDQRFSNLDQYPFSPNYLDDLPGYPGLRAHYLDEGNSDAEDVFLCLHGEPTWSYLYRKMIPVFAESGARVIAPDFFGFGKSDKPVDEEDYTFEFHRNFLLALIERLDLRNITLVVQDWGGFLGLTLPMADPSRFKRLIIMNACLMTDPVTQPAFSAFVTQPADGFTAWKYDLVTPSDLRLDQFMKRWAPTLTEAEASAYAAPFPDTSYQAGVRKFPKMVAQRDQACIDISTEAISFWQNDWNGQTFMAIGMKDKLLGPDVMYPMKALINGCPEPLEIADAGHFVQEFGEQVAREALKHFAETE ): 60
